# target-under-test: human c-KIT (Thr544-Val976) (Homo sapiens, UniProt P10721)
# Construct: human c-KIT (Thr544-Val976); GST (N); purchased Cell Signaling Technology; host or cells: baculovirus expression system
# Sequence (P10721 544-976): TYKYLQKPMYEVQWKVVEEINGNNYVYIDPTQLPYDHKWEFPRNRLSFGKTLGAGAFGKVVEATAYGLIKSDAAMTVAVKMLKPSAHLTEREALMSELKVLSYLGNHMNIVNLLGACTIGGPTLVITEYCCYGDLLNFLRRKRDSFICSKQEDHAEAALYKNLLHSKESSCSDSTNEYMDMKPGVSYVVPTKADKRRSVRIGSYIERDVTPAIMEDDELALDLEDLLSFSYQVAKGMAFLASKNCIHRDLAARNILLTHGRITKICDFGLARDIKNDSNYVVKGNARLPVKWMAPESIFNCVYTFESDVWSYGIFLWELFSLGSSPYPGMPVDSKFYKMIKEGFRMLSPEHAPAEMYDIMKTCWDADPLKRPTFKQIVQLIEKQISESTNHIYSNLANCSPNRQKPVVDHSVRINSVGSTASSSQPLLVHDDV
# protocol: c-KIT kinase assay (HTScan kit, DELFIA)
# Format: biochemical
# experimental-conditions: compound at 1 μM; read-out: c-KIT 1 μM, % of inhibition relative to control

{"molecule": "O=C1Nc2ccc(F)cc2/C1=C\\c1cc2cccccc-2c1F", "units-of-measure": "%", "inhibition at 1 µM": 34.8}
{"molecule": "O=C1Nc2ccc(F)cc2/C1=C\\c1cc2cccccc-2c1", "units-of-measure": "%", "inhibition at 1 µM": 80}
{"molecule": "Cc1cc(/C=C2\\C(=O)Nc3ccc(F)cc32)c2ccccc(OCCCN(C)C)c1-2", "units-of-measure": "%", "inhibition at 1 µM": 65.1}
{"molecule": "Cc1cc(C=C2C(=O)Nc3ccc(S(=O)(=O)Nc4ccccn4)cc32)c2cccccc1-2", "units-of-measure": "%", "inhibition at 1 µM": 23.4}
{"molecule": "O=C1Nc2cc(Br)ccc2/C1=C\\c1ccc2cccccc1-2", "units-of-measure": "%", "inhibition at 1 µM": 6.8}
{"molecule": "Cc1cc(C=C2C(=O)Nc3ccc(F)cc32)c2ccccc(OCCCN3CCN(C)CC3)c1-2", "units-of-measure": "%", "inhibition at 1 µM": 58}
{"molecule": "COC(=O)c1cc(/C=C2\\C(=O)Nc3ccccc32)c2cccccc1-2", "units-of-measure": "%", "inhibition at 1 µM": 2.8}
{"molecule": "O=C1Nc2ccc(F)cc2/C1=C/c1cc2cccccc-2c1", "units-of-measure": "%", "inhibition at 1 µM": 76.6}
{"molecule": "Cc1ccc2c(c1)/C(=C\\c1c3cccccc-3nc1N)C(=O)N2", "units-of-measure": "%", "inhibition at 1 µM": 27.5}
{"molecule": "CN(C)CCNC(=O)c1cc(/C=C2/C(=O)Nc3ccc(F)cc32)c2cccccc1-2", "units-of-measure": "%", "inhibition at 1 µM": 30.2}
{"molecule": "O=C1Nc2ccc(Cl)cc2/C1=C\\c1ccc2cccccc1-2", "units-of-measure": "%", "inhibition at 1 µM": 16.6}
{"molecule": "Cc1cc(C)c2ccc(/C=C3/C(=O)Nc4ccccc43)c-2c(C)c1", "units-of-measure": "%", "inhibition at 1 µM": 11.5}
{"molecule": "Cc1c2cccccc-2c(C)c1/C=C1/C(=O)Nc2ccc(F)cc21", "units-of-measure": "%", "inhibition at 1 µM": 33.7}
{"molecule": "Cc1cc(C=C2C(=O)Nc3ccccc32)c2ccccc(OCCCN(C)C)c1-2", "units-of-measure": "%", "inhibition at 1 µM": 60.4}
{"molecule": "COc1ccc2c(c1)/C(=C/c1ccc3cccccc1-3)C(=O)N2", "units-of-measure": "%", "inhibition at 1 µM": 7.2}
{"molecule": "CCN(CC)CCCOc1ccccc2c(C=C3C(=O)Nc4ccc(F)cc43)cc(C)c1-2", "units-of-measure": "%", "inhibition at 1 µM": 83.2}
{"molecule": "O=C1Nc2ccc(F)cc2/C1=C/c1ccc2cccccc1-2", "units-of-measure": "%", "inhibition at 1 µM": 60.4}
{"molecule": "Cc1ccc2c(c1)/C(=C/c1ccc3cccccc1-3)C(=O)N2", "units-of-measure": "%", "inhibition at 1 µM": 32.2}
